For each entry below, report its apparent KD of MS2 coat protein value.
tested on: MS2 coat protein; assay: apparent KD of MS2 coat protein; designed switch direction (-1 OFF switch, 1 ON switch): -1; higher = weaker reporter binding; conditions: input ligand: FMN 200 uM
Entry rule: numbers only, all in nM.

Challenge: For the sequence GCGUUUUGGUGAGGAUAUCGGCCCGAAACCGGGCAACAUGAGGAUCACCCAUGUACGUGAUCCUGCGAGAAGGCACCGAUUAUA [Bedi] (Eterna round: R96, puzzle: Exclusion NG 2) , give its reported apparent KD of MS2 coat protein.
Response given: 990

Challenge: Quick one: give measured apparent KD of MS2 coat protein for CAGUACUGAGGAUAUACAUGAGGAUCACCCAUGUGUCCUAGCUAGGAAACUAGCAUUAGUAGAAGGCAGUACUG [Fiskers Ex 3 828 mod 6] (Eterna round: R96, puzzle: Exclusion 3)
Response given: 225

Challenge: Write down apparent KD of MS2 coat protein measured for item UGCCGUAGAGGAUAUACAUUGAAUAAGAUUCAUGUAGAACUACAUGAGGAUCACCCAUGUAGAAGGCUAUGGCU [JL-ex2-4.38 Eli mod] (Eterna round: R97, puzzle: Exclusion 2)
Response given: 29.5

This collection of values is drawn from the supplement of paper PMC9170038.
